Tested on: nucleic acids
Assay: Excitation/emission maxima of dyes complexed with nucleic acids
Type: physicochemical
Parameters: key: wavelength in nm
Conditions: Table 2; dye complexed with nucleic acids
measuredEndpoint: EX max

Please review the entries below; each comes with its answer.
> print(dat)
                                   compound  recordedvalue
1  CC1=CC(=Cc2sc3ccccc3[n+]2C)c2ccccc2N1c1ccccc1 [compound 613]            506
2  COc1ccc2c(c1)N(c1ccccc1)C(Cl)=CC2=Cc1sc2ccccc2[n+]1C [compound 5103]            511
3  CN1C(=Cc2cc(Cl)[n+](-c3cccs3)c3ccccc23)Sc2ccccc21 [compound 830]            517
4  C[n+]1c(C=C2C=CN(c3ccccc3)C(Cl)=C2)sc2ccccc21 [compound 578]            470

A. CCCCc1cc(C=C2Sc3ccccc3N2C)c2ccccc2[n+]1-c1cccs1 [compound 71]
B. CCN1C(=Cc2cc(Cl)[n+](-c3ccccc3)c3ccccc23)Sc2ccccc21 [compound 200]
Qu. Identify the entry with the larger EX max. Options: A and B Give the label under which the chosen entry appears.
Ans. B
(B: 739, A: 508)
